Target: AKT2 (PKB beta) (Homo sapiens, UniProt P31751)
Construct: purchased Thermo Fisher Scientific
Sequence (P31751 whole entry): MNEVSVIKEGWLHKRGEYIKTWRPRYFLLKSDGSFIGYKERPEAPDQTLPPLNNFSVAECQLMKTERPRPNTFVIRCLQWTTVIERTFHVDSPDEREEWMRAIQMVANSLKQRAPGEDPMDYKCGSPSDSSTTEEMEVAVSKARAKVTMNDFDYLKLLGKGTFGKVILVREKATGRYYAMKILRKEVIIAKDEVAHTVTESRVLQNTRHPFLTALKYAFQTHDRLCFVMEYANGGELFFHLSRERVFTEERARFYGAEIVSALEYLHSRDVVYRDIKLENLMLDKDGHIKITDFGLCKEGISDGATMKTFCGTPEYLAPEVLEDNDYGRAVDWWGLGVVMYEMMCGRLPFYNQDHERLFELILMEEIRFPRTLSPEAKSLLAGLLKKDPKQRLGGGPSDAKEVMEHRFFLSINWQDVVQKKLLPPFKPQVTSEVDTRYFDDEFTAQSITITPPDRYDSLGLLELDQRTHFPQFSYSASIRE
Assay: Kinase panel study
Type: biochemical
Conditions: AKT2 (PKB beta); compound at 10µM; read-out: % of Inhibition
Threshold check on inhibition at 10 µM: at or above 10% gives Criterion met, strictly below gives Criterion not met.

Below are worked cases with known answers.
COc1ccc2nc3c(cc2c1)c(N)nn3C(=O)c1cccc(N(C)C)c1 [MW05-E2]    Criterion not met
O=c1c2cnccc2c2nccc3c4cc(O)ccc4n1c32 [MW01-E18]    Criterion not met
O=c1c2cc(O)ccc2c2nccc3c4cc(O)ccc4n1c32 [MW01-E10]    Criterion met
COc1ccc2c(c1)c1ccnc3c4ccnc(OC)c4c(=O)n2c13 [MW01-E14]    Criterion met

Continue with the compound presented below.
# input Does inhibition at 10 µM meet or surpass 10% for COc1ccc2c(c1)c1ccnc3c4nc(OC)ccc4c(=O)n2c13 [MW01-E6] ?
# output Criterion not met
